measurementTarget: human Y4 receptor (Homo sapiens, UniProt P50391)
Construct: expressed in transfected cells
Sequence (P50391 whole entry): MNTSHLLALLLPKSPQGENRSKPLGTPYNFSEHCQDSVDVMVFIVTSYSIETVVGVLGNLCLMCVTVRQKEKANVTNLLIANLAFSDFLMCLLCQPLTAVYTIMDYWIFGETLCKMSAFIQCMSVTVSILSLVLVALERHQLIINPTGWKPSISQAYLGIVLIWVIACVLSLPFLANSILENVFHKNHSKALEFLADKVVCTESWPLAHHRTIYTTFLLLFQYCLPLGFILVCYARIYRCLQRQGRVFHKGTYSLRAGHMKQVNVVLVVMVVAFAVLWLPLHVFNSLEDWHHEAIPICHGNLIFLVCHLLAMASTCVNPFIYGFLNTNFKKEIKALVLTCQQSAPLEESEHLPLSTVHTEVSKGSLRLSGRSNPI
testMethodNotes: NPY4 cAMP HTRF Agonist Assay (inhibitory cAMP assay, Gi activation by Y4 agonism)
Format: cell-based
conditionDetails: TABLE 5, R2 is Pyridinyl-CF3; read-out: hY4 CAMP EC50
readoutName: EC50 (nM)
Enter your answer as a number in nM; do not include the unit.

# count of solved cases: 5
>  <structure>
CC(C)(C)OC(=O)Nc1cccc(-c2cnc(N[C@@H]3CCCC[C@H]3N[C@H]3CCCN(c4ccc(C(F)(F)F)nc4)C3)o2)c1

>  <unitsText>
nM

>  <EC50>
95

$$$$
>  <structure>
NC(=O)c1cccc(-c2cnc(N[C@@H]3CCCC[C@H]3N[C@H]3C[C@@H]4C[C@H]3N(c3ccc(C(F)(F)F)cn3)C4)o2)c1

>  <unitsText>
nM

>  <EC50>
9

$$$$
>  <structure>
COc1ccc(-c2cnc(N[C@@H]3CCCC[C@H]3N[C@H]3CCCN(c4ccc(C(F)(F)F)nc4)C3)o2)cc1C#N

>  <unitsText>
nM

>  <EC50>
1600

$$$$
>  <structure>
COC(=O)c1cccc(-c2cnc(N[C@@H]3CCCC[C@H]3N[C@H]3CCCN(c4ccc(C(F)(F)F)cn4)C3)o2)c1

>  <unitsText>
nM

>  <EC50>
166

$$$$
>  <structure>
NC(=O)c1cccc(-c2ccnc(N[C@@H]3CCCC[C@H]3N[C@H]3CCCN(c4ccc(C(F)(F)F)nc4)C3)c2)c1

>  <unitsText>
nM

>  <EC50>
16

$$$$

Q: Param item = `NC(=O)c1cccc(-c2ccnc(N[C@@H]3CCCC[C@H]3N[C@H]3C[C@@H]4C[C@H]3N(c3ccc(C(F)(F)F)nc3)C4)c2)c1` ; retrieve measured EC50.
A: 180

Q: Follow-up entry: `O=C(Nc1cccc(-c2cnc(N[C@@H]3CCCC[C@H]3N[C@H]3CCCN(c4ccc(C(F)(F)F)nc4)C3)o2)c1)C1CC1`
A: 3

Q: Repeat with `NC(=O)c1cccc(-c2cnc(N[C@@H]3CCCC[C@H]3N[C@H]3CCCN(c4ccc(C(F)(F)F)cn4)C3)o2)c1`
A: 1

Q: Input `NC(=O)c1cccc(-c2ccnc(N[C@@H]3CCCC[C@H]3N[C@H]3C[C@@H]4C[C@H]3N(c3ccc(C(F)(F)F)cn3)C4)c2)c1`
A: 26

Q: // repeat for `COC(=O)Nc1cccc(-c2cnc(N[C@@H]3CCCC[C@H]3N[C@H]3CCCN(c4ccc(C(F)(F)F)nc4)C3)o2)c1` and report
A: 5

Q: // query: `NC(=O)c1cccc(-c2cnc(N[C@@H]3CCCC[C@H]3N[C@H]3C[C@@H]4C[C@H]3N(c3ccc(C(F)(F)F)nc3)C4)o2)c1`
A: 31

Q: Next entry: `NC(=O)c1cccc(-c2cnc(N[C@@H]3CCCC[C@H]3N[C@H]3C[C@@H]4C[C@H]3N(c3ccnc(C(F)(F)F)c3)C4)o2)c1`
A: 567

====

measurementTarget: human Y4 receptor (Homo sapiens)
Construct: expressed in transfected cells
testMethodNotes: NPY4 cAMP HTRF Agonist Assay (inhibitory cAMP assay, Gi activation by Y4 agonism)
Assay type: cell-based
conditionDetails: human Y4 stable CHO clonal cells, forskolin + IBMX; read-out: NPY4 cAMP HTRF Agonist Assay EC50
Structures can show the parent of a compound that is named as a salt.
readoutName: pEC50
// returns pEC50 (minus log10 of molar concentration), number only

Some entries whose results are on file:
>  <compound>
FC(F)(F)Oc1ccc(-c2cnc(N[C@@H]3CCCC[C@H]3N[C@H]3CCCN(c4ccc(-n5ccc(C(F)(F)F)n5)cc4)C3)o2)cc1 [Example 70, bis-trifluoroacetate]

>  <pEC50>
6.10

$$$$
>  <compound>
N#Cc1ccc(N2CCC[C@H](N[C@@H]3CCCC[C@H]3Nc3nnc(-c4ccccc4)o3)C2)cc1 [Example 54, trifluoroacetate]

>  <pEC50>
6.57

$$$$
>  <compound>
Cc1ccn(-c2ccc(N3CCC[C@H](N[C@@H]4CCCC[C@H]4Nc4ncc(-c5ccc(OC(F)(F)F)cc5)o4)C3)cc2)n1 [Example 68, bis-trifluoroacetate]

>  <pEC50>
6.31

$$$$
>  <compound>
FC(F)(F)Oc1ccc(-c2cnc(N[C@@H]3CCCC[C@H]3N[C@H]3CCCN(c4ccc(I)cc4)C3)o2)cc1 [Example 93, bis-trifluoroacetate]

>  <pEC50>
7.48

$$$$
>  <compound>
FC(F)(F)Oc1ccc(N2CCC[C@H](N[C@@H]3CCCC[C@H]3Nc3ncc(-c4ccccc4)o3)C2)cc1

>  <pEC50>
7.04

$$$$
>  <compound>
Cc1nnc(-c2ccc(N3CCC[C@H](N[C@@H]4CCCC[C@H]4Nc4ncc(-c5ccc(OC(F)(F)F)cc5)o4)C3)cc2)o1

>  <pEC50>
6.84

$$$$

Q: Item under review: `O=[N+]([O-])c1ccc(N2CCC[C@H](N[C@@H]3CCCC[C@H]3Nc3ncc(-c4ccc(F)cc4)o3)C2)cc1` . Reported pEC50?
A: 8.15

Q: Same again, this time with `O=[N+]([O-])c1ccc(N2C[C@@H]3C[C@H](N[C@@H]4CCCC[C@H]4Nc4ncc(-c5ccc(OC(F)(F)F)cc5)o4)[C@H]2C3)cc1`
A: 8.05

Q: Next record, please: COc1ccc(-c2ccnc(N[C@@H]3CCCC[C@H]3N[C@H]3CCCN(c4ccc(C#N)cc4)C3)n2)cc1 [Example 58, trifluoroacetate]
A: 5.93

Q: Let us now turn to N#Cc1ccc(N2CCC[C@H](N[C@@H]3CCCC[C@H]3Nc3nccc(-c4ccccc4)n3)C2)cc1 [Example 60, bis-trifluoroacetate]
A: 6.30
